Biological target: ITK (Homo sapiens)
Sequence (Q08881 whole entry): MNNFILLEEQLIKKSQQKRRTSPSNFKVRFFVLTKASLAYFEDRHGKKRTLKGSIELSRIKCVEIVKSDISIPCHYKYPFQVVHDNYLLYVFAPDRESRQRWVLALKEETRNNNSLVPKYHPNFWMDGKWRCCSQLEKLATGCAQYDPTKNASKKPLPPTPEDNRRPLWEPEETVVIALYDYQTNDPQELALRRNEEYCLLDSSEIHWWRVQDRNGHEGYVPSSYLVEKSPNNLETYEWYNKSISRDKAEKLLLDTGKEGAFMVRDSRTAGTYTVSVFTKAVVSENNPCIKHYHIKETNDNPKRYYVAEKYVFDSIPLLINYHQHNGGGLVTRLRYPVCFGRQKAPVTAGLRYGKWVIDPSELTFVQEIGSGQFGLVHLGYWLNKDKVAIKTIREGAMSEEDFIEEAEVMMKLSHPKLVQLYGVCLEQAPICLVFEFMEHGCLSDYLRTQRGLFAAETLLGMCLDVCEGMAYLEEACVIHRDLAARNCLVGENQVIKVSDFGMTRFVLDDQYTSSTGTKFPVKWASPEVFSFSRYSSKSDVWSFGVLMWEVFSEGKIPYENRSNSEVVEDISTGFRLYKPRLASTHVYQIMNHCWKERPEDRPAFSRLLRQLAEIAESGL
Assay: ITK degradation HiBiT assay
Assay type: cell-based
Set-up: expressed in transfected cells; host or cells: Molt4 (ATCC CRL-1552), monoclonal clone 1C10, engineered to carry the HiBiT tag
Details: C-terminal HiBiT-tagged Molt4 cells, 4 hrs
measurementKind: DC50 (nM)

Worked examples follow.
{"compound": "CC1(C)CCc2c(-c3cc4ccc(C(=O)N5CCC(CN6CCN(c7ccc(C8CCC(=O)NC8=O)cn7)CC6)CC5)cc4[nH]3)n[nH]c2C1 (stereo not drawn) [Compound 59]", "studySystem": "ITK (Homo sapiens)", "recordedValue": 0.05}
{"compound": "C[C@H]1CN(C(=O)c2ccc3cc(-c4n[nH]c5c4CCC(C)(C)C5)[nH]c3c2)CCN1CC1CCN(c2ccc(C3CCC(=O)NC3=O)cn2)CC1 (stereo partly drawn) [Compound 131]", "studySystem": "ITK (Homo sapiens)", "recordedValue": 0.5}
{"compound": "C[C@@]12Cc3[nH]nc(C(=O)Nc4cnn(C5CCN(CC6CCN(c7ccc([C@@H]8CCC(=O)NC8=O)cc7)CC6)CC5)c4)c3C[C@@H]1C2(F)F [Compound 116]", "studySystem": "ITK (Homo sapiens)", "recordedValue": 0.9}

a: C[C@H]1CN(CC2CCN(c3ccc(C4CCC(=O)NC4=O)cn3)CC2)CCN1C(=O)c1ccc2cc(-c3n[nH]c4c3CCC(C)(C)C4)[nH]c2c1 (stereo partly drawn) [Compound 130]
b: C[C@@]12Cc3[nH]nc(C(=O)Nc4cnn(C5CCN(CC6CCN(c7ccc(N8CCC(=O)NC8=O)cc7)C6)CC5)c4)c3C[C@@H]1C2(F)F (stereo partly drawn) [Compound 209]
c: Cn1c(=O)n([C@H]2CCC(=O)NC2=O)c2cccc(N3CCC(CN4CCN(C(=O)c5ccc6cc(-c7n[nH]c8c7CCC(C)(C)C8)[nH]c6c5)CC4)CC3)c21 [Compound 46]
d: C[C@@H](C(=O)N(C)c1ccc2cc(-c3n[nH]c4c3C[C@@H]3C(F)(F)[C@]3(C)C4)[nH]c2c1)N1CCN(CC2CCN(c3ccc(C(=O)NC4CCC(=O)NC4=O)nc3)CC2)CC1 (stereo partly drawn) [Compound 66]
e: C[C@@]12Cc3[nH]nc(C(=O)Nc4cnn([C@H]5CCN(CC6CCN(c7ccc(C(=O)N[C@H]8CCC(=O)NC8=O)nc7)CC6)C[C@@H]5F)c4)c3C[C@@H]1C2(F)F [Compound 93]
Output the entries ranked by DC50 from maximum down to minimum. Response format: the labels, sorted as the prompt asks.
c, a, e, d, b
(c: 14 nM, a: 5.5 nM, e: 1.9 nM, d: 0.55 nM, b: 0.345 nM)

* * *

Molecular target: UniProt:Q08881
Assay: ITK degradation HiBiT assay
Assay type: cell-based
Set-up: expressed in transfected cells; host or cells: Molt4 (ATCC CRL-1552), monoclonal clone 1C10, engineered to carry the HiBiT tag
Conditions: MOLT-4, C-terminal HiBiT-tagged Molt4 cells, 4 hrs
measurementKind: Dmax (%)

Worked examples follow.
{"compound": "C[C@@]12Cc3[nH]nc(C(=O)Nc4cnn(CC5CCN(C(=O)C6CCN(c7ccc(N8CCC(=O)NC8=O)cc7)CC6)CC5)c4)c3C[C@@H]1C2(F)F", "recordedValue": 75}
{"compound": "C[C@@H]1CN(C(=O)c2ccc3cc(-c4n[nH]c5c4C[C@@H]4C(F)(F)[C@]4(C)C5)[nH]c3c2)CCN1CC1CCN(c2ccc(C3CCC(=O)NC3=O)cc2)CC1 (some centres unmarked)", "recordedValue": 84}
{"compound": "C[C@@]12Cc3[nH]nc(C(=O)Nc4cnn([C@H]5CCN(CC6CCN(c7ccc([C@H]8CCC(=O)NC8=O)cc7)CC6)C[C@@H]5F)c4)c3C[C@@H]1C2(F)F (single isomer, unassigned)", "recordedValue": 90}
{"compound": "C[C@@]12Cc3[nH]nc(C(=O)Nc4cnn(CC5CCN(CC6CCN(c7ccc(C8CCC(=O)NC8=O)cc7)CC6)CC5)c4)c3C[C@@H]1C2(F)F (mixture of isomers)", "recordedValue": 85}
{"compound": "Cn1c(=O)n(C2CCC(=O)NC2=O)c2cccc(N3CCC(CN4CCC5(CC4)CCN(c4ccc6cc(-c7n[nH]c8c7C[C@@H]7C(F)(F)[C@]7(C)C8)[nH]c6c4)C5=O)CC3)c21 (some centres unmarked)", "recordedValue": 90}

I: CC1(C)CCc2c(-c3cc4ccc(C(=O)N5CCC(CN6CCCc7cc(C8CCC(=O)NC8=O)ccc76)CC5)cc4[nH]3)n[nH]c2C1 (centres unmarked)
II: C[C@H]1CN(C(=O)c2ccc3cc(-c4n[nH]c5c4C[C@@H]4C(F)(F)[C@]4(C)C5)[nH]c3c2)CCN1CC1CCN(c2ccc(C3CCC(=O)NC3=O)cc2)CC1 (mixture of isomers)
Which shows the larger Dmax value: I or II ? Let me know the label of the one you choose.
II

A: C[C@@]12Cc3[nH]nc(C(=O)Nc4ccc(C5CCN(CC6CCN(c7ccc(C8CCC(=O)NC8=O)cc7)CC6)CC5)cc4)c3C[C@@H]1C2(F)F (some centres unmarked)
B: CN(c1ccc2cc(-c3n[nH]c4c3C[C@@H]3C(F)(F)[C@]3(C)C4)[nH]c2c1)C(=O)[C@H]1C[C@@]2(CCN(c3ccc4c(c3)C(=O)N([C@H]3CCC(=O)NC3=O)C4=O)C2)C1 (racemic) [Compound 71a]
Select the item whose Dmax value is smaller, choosing between A and B . Let me know the label of the one you choose.
B

* * *

Experiment: Mouse PK analysis (blood/plasma concentration after oral administration)
Format: in vivo
Conditions: mouse; mice, oral, plasma
measurementKind: Cmax (nM)

Worked examples follow.
{"compound": "CN(c1ccc2cc(-c3n[nH]c4c3C[C@@H]3C(F)(F)[C@]3(C)C4)[nH]c2c1)C(=O)[C@H]1C[C@]2(CCN(c3ccc4c(c3)C(=O)N([C@H]3CCC(=O)NC3=O)C4=O)C2)C1 (racemic) [Compound 71b]", "measurementKind": "Cmax", "recordedValue": 223}
{"compound": "Cn1c(=O)n([C@@H]2CCC(=O)NC2=O)c2cccc(N3CCC(CN4CCN(C(=O)c5ccc6cc(-c7n[nH]c8c7CCC(C)(C)C8)[nH]c6c5)CC4)CC3)c21 [Compound 48]", "measurementKind": "Cmax", "recordedValue": 2440}
{"compound": "CN(C(=O)CCC1CCN(c2ccc(C(=O)NC3CCC(=O)NC3=O)nc2)C1)c1ccc2cc(-c3n[nH]c4c3C[C@@H]3C(F)(F)[C@]3(C)C4)[nH]c2c1 (some centres unmarked) [Compound 69]", "measurementKind": "Cmax", "recordedValue": 283}

1: CC1(C)CCc2c(-c3cc4ccc(C(=O)N5CCC(C6CCN(c7ccc(C8CCC(=O)NC8=O)cn7)CC6)CC5)cc4[nH]3)n[nH]c2C1 (centres unmarked) [Compound 58]
2: Cn1c(=O)n(C2CCC(=O)NC2=O)c2cccc(N3CCC(CN4CCC5(CC4)CCN(c4ccc6cc(-c7n[nH]c8c7CCC(C)(C)C8)[nH]c6c4)C5=O)CC3)c21 (centres unmarked) [Compound 13]
3: CC1(C)CCc2c(-c3cc4ccc(N5CCC6(CCN(CC7CCN(c8ccc(C9CCC(=O)NC9=O)cn8)CC7)CC6)C5=O)cc4[nH]3)n[nH]c2C1 (centres unmarked) [Compound 22]
4: C[C@@H](C(=O)N(C)c1ccc2cc(-c3n[nH]c4c3CCC(C)(C)C4)[nH]c2c1)N1CCN(CC2CCN(c3cccc4c3n(C)c(=O)n4C3CCC(=O)NC3=O)CC2)CC1 (some centres unmarked) [Compound 3]
Please produce an ascending ranking of these compounds based on Cmax. Response format: the labels, sorted as the prompt asks.
1, 2, 4, 3

1: Cn1c(=O)n([C@H]2CCC(=O)NC2=O)c2cccc(N3CCC(CN4CCN(C(=O)c5ccc6cc(-c7n[nH]c8c7CCC(C)(C)C8)[nH]c6c5)CC4)CC3)c21 [Compound 46]
2: C[C@@H](C(=O)N(C)c1ccc2cc(-c3n[nH]c4c3C[C@@H]3C(F)(F)[C@]3(C)C4)[nH]c2c1)N1CCN(C[C@H]2CCN(c3ccc4c(c3)C(=O)N(C3CCC(=O)NC3=O)C4=O)C2)CC1 (some centres unmarked) [Compound 9]
3: C[C@@H](C(=O)N(C)c1ccc2cc(-c3n[nH]c4c3CCC(C)(C)C4)[nH]c2c1)N1CCN(C[C@H]2CCN(c3ccc4c(c3)n(C)c(=O)n4C3CCC(=O)NC3=O)C2)CC1 (some centres unmarked) [Compound 5]
Please produce an ascending ranking of these compounds based on Cmax. Response format: the labels, sorted as the prompt asks.
2, 3, 1
(2: 46 nM, 3: 188 nM, 1: 2130 nM)

* * *

Target: ITK (Mus musculus, UniProt Q03526)
Construct: mice were sacrificed and splenocytes were isolated and used to prepare protein lysates; from tissue; host or cells: mouse splenocytes (spleen) after oral dosing
Sequence (Q03526 whole entry): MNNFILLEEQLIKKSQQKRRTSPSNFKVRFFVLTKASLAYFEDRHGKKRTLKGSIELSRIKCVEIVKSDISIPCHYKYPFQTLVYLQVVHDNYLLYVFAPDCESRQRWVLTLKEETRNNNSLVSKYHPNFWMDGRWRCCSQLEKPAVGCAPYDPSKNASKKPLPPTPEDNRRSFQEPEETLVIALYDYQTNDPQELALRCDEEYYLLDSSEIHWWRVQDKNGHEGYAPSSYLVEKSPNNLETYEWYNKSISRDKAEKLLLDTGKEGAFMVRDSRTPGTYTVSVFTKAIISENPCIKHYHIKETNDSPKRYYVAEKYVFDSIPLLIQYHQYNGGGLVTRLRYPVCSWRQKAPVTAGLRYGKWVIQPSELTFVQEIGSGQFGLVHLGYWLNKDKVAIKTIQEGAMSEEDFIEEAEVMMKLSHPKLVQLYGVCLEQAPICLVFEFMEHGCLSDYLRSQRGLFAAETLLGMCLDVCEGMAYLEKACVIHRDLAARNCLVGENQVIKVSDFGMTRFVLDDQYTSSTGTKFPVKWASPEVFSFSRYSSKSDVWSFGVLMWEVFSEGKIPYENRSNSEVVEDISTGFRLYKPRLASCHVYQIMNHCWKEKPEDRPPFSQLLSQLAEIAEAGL
Experiment: Mouse PD assay for ITK degradation (Western blot, splenocytes after oral administration)
Format: in vivo
Settings: percent ITK remaining in mouse splenocytes relative to vehicle, 90 mpk PO, 6 h
measurementKind: ITK (%) 90 mpk PO, 6 h

Worked examples follow.
{"molecule": "C[C@@H](C(=O)N(C)c1ccc2cc(-c3n[nH]c4c3CCC(C)(C)C4)[nH]c2c1)N1CCN(C[C@H]2CCN(c3ccc4c(c3)CN(C3CCC(=O)NC3=O)C4=O)C2)CC1 (some centres unmarked)", "ITK (%) 90 mpk PO, 6 h": 82}
{"molecule": "C[C@@]12Cc3[nH]nc(C(=O)Nc4cnn(CC5CN(C(=O)C6CN(c7ccc(C8CCC(=O)NC8=O)cn7)C6)C5)c4)c3C[C@@H]1C2(F)F (some centres unmarked)", "ITK (%) 90 mpk PO, 6 h": 129}

P: C[C@@]12Cc3[nH]nc(C(=O)Nc4cnn(CC5CN(C(=O)C6CCN(c7ccc(C8CCC(=O)NC8=O)cn7)CC6)C5)c4)c3C[C@@H]1C2(F)F (some centres unmarked)
Q: C[C@@]12Cc3[nH]nc(C(=O)Nc4cnn(CC5CN(C[C@H]6CCN(c7ccc8c(c7)C(=O)N(C7CCC(=O)NC7=O)C8=O)C6)C5)c4)c3C[C@@H]1C2(F)F (some centres unmarked)
R: C[C@@H](C(=O)N(C)c1ccc2cc(-c3n[nH]c4c3C[C@@H]3C(F)(F)[C@]3(C)C4)[nH]c2c1)N1CCN(CC2CCN(c3ccc(N4CCC(=O)NC4=O)cn3)CC2)CC1
Output the entries ranked by ITK (%) 90 mpk PO, 6 h from maximum down to minimum. Response format: the labels, sorted as the prompt asks.
P, Q, R

Data origin, for the record: patent US20240279202A1
